Origin of measurements: patent US20260053834A1

TARGET: AKT1 WT (Homo sapiens, UniProt P31749)
Sequence (P31749 whole entry): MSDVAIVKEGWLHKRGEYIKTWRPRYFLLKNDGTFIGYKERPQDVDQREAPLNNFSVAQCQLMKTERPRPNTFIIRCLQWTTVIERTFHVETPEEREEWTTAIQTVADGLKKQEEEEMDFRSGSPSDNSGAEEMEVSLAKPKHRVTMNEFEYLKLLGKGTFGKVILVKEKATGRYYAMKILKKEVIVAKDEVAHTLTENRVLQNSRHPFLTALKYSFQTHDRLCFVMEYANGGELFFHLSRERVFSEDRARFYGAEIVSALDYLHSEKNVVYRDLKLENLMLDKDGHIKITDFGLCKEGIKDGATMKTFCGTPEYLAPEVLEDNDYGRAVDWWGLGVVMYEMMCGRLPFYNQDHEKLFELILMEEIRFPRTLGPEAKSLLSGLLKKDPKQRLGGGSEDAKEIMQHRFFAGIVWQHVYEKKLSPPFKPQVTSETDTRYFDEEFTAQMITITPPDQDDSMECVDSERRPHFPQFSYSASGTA
ASSAY INFO: Live cell target engagement by NanoBRET competitive probe displacement, AKT1 WT
ASSAY SETUP: transfected HEK293 cells, 2 h at 37° C., read-out: AKT1 WT IC50: GeoMean IC50
Description: Determining live cell AKT1 E17K, AKT1 WT, and AKT2 target engagement by NanoBRET competitive probe displacement. Live cell target engagement assays were performed as described (Vasta, J. D. et al. Cell Chem Biol 2018, 25(11), 206-214). […] After incubation for 2 h at 37° C., luciferase substrate and extracellular luciferase inhibitor were added to all wells, and luminescent intensity at 460 nm and 600 nm were measured on a multimode plate-reader. […]
pIC50: −log10 of the molar value.
Property: pIC50; scope: individual molecules

Reference set (10 entries):
MOLECULE: Nc1ncccc1-c1nc2ccc(-n3cccn3)nc2n1-c1ccc2c(c1)CC[C@@H]2NC(=O)c1ccc(F)c(C=O)c1 [Example 191]
RESULT VALUE: 7.00 to 8.00
//
MOLECULE: Nc1ncccc1-c1nc2c(OC(F)F)cc(-n3cccn3)nc2n1-c1ccc2c(c1)CC[C@@H]2NC(=O)c1ccc(O)c(C=O)c1 [Example 225]
RESULT VALUE: 7.00 to 8.00
//
MOLECULE: N#Cc1cc(-n2cccn2)nc2c1nc(-c1cccnc1N)n2-c1ccc2c(c1)CC[C@@H]2NC(=O)c1ccc(O)c(C=O)c1 [Example 209]
RESULT VALUE: 7.00 to 8.00
//
MOLECULE: Cc1cnn(-c2ccc3nc(-c4cccnc4N)n(-c4ccc5c(c4)CC[C@@H]5NC(=O)c4ccc(O)c(C=O)c4)c3n2)c1 [Example 77]
RESULT VALUE: 7.00 to 8.00
//
MOLECULE: COc1cc(C(=O)N[C@H]2CCc3cc(-n4c(-c5cccnc5N)nc5ccc(-c6ccccc6)nc54)ccc32)cc(C=O)c1O [Example 36]
RESULT VALUE: 7.00 to 8.00
//
MOLECULE: Nc1ncccc1-c1nc2ccc(-c3ccccc3)nc2n1-c1ccc2c(c1)CC[C@@H]2NC(=O)c1cc(Cl)c(O)c(C=O)c1 [Example 11]
RESULT VALUE: 7.00 to 8.00
//
MOLECULE: Nc1ncccc1-c1nc2ccc(-n3cc4c(n3)COC4)nc2n1-c1ccc2c(c1)CC[C@@H]2NC(=O)c1ccc(O)c(C=O)c1 [Example 207]
RESULT VALUE: 7.00 to 8.00
//
MOLECULE: Nc1ncccc1-c1nc2ccc(-c3cccc(F)c3)nc2n1-c1ccc2c(c1)CC[C@@H]2NC(=O)c1ccc(O)c(C=O)c1 [Example 26]
RESULT VALUE: 5.70 to 7.00
//
MOLECULE: Nc1ncccc1-c1nc2ccc(-n3cccn3)nc2n1-c1ccc2c(c1)CC(O)C2NC(=O)c1ccc(O)c(C=O)c1 (stereo not shown) [Example 251]
RESULT VALUE: 5.70 to 7.00
//
MOLECULE: CC(=O)Nc1ccc(C(=O)N[C@H]2CCc3cc(-n4c(-c5cccnc5N)nc5ccc(N6CCOCC6)nc54)ccc32)cc1C=O [Example 53]
RESULT VALUE: 7.00 to 8.00

Query: Tell me the measured pIC50 of Nc1ncccc1-c1nc2c(C3CC3)cc(-n3cccn3)nc2n1-c1ccc2c(c1)CC[C@@H]2NC(=O)c1ccc(O)c(C=O)c1 [Example 230] , please.
Reply: 7.00 to 8.00

Query: Same thing, different molecule: Nc1ncccc1-c1nc2ccc(-n3cccn3)nc2n1-c1ccc2c(c1)CC[C@@H]2NC(=O)c1cc(C=O)c(O)c(F)c1Cl [Example 110]
Reply: 7.00 to 8.00

Query: Same thing, different molecule: CN(C)Cc1cc(C(=O)N[C@H]2CCc3cc(-n4c(-c5cccnc5N)nc5ccc(-n6cccn6)nc54)ccc32)cc(C=O)c1O [Example 192]
Reply: 5.70 to 7.00
